Overview of reported IC50 across a group of molecules:
target: GST-Met 248 PDE 4a (Homo sapiens); construct: human recombinant phosphodiesterase IVa (met-248); assay: SPA based PDE Activity Assay (hydrolysis of cAMP to AMP); settings: 100 nM cAMP; purified GST fusion protein of human recombinant phosphodiesterase IVa (met-248), baculovirus/Sf-9; 30° C., 10 min
Sequence (P27815 248-886 limits assumed): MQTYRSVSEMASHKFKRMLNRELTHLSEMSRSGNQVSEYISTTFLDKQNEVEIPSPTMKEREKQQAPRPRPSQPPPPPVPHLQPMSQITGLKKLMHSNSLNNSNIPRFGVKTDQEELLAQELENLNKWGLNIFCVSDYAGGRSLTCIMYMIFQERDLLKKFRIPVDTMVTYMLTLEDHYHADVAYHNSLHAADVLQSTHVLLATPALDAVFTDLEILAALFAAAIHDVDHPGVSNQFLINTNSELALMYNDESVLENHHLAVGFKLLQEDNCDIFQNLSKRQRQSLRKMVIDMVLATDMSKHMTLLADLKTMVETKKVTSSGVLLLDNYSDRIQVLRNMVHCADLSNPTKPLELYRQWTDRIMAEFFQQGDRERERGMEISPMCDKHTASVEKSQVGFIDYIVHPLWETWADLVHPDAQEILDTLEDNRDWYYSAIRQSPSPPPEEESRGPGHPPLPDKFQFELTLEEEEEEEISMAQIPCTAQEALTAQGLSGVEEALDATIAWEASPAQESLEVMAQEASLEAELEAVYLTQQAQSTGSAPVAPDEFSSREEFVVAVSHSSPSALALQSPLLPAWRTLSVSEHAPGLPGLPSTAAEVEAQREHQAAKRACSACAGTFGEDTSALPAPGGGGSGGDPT
Express your answer in nM, writing the number without its unit.

>>> df
                                   molecule                 experimentaltarget  propertylabel  reported
0  NS(=O)(=O)c1cccc(Sc2ccc(C(Cc3ccncc3)c3ccc(OC(F)F)c(OC(F)F)c3)cn2)c1 (centres unmarked)  GST-Met 248 PDE 4a (Homo sapiens)           IC50      5.45

Asked: What IC50 value was documented for this molecule, O=[N+]([O-])c1ccc(S(=O)(=O)c2ccc(C(Cc3cc[n+]([O-])cc3)c3ccc(OC(F)F)c(OC(F)F)c3)cn2)cc1 (centres unmarked) ?
Given back: 21.2
